# maps each entry to its EC50
- SYSTEM: T1, human serum albumin (human, UniProt P02768 25-609)
- T1 construct: immobilized on chips or coated on plates elsewhere; also called HSA; HuSA
- METHOD DESCRIPTION: direct binding ELISA, albumin coated
Quick note: give the figure in nM, leave out the unit.

INSERT INTO results (binder, unit_descriptor, endpoint_result) VALUES
  ('PCSK9-PKE2 tandem 4472_H09 (designed binder, The real molecule is ONE polypeptide: PCSK9 domain, undisclosed linker C, PKE2 domain. It is given here as two chains because the linker letters are unknown., not shown: The inter-domain linker) PCSK9 domain: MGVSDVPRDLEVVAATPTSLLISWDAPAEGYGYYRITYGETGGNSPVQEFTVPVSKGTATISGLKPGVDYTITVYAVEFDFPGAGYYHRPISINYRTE PKE2 domain: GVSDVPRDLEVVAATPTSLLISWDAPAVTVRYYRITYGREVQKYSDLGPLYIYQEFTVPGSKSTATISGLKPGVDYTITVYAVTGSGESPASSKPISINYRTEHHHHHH', 'nM', 27.8),
  ('PCSK9-PKE2 tandem 4472_B05 (designed binder, not shown: small tags and cut ends, The two parts are one polypeptide in the real molecule, joined by the undisclosed linker O; they are given here as separate chains.) PCSK9 10Fn3: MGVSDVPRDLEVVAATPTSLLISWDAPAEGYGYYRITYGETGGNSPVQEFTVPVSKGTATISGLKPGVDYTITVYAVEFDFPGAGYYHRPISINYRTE PKE2 10Fn3: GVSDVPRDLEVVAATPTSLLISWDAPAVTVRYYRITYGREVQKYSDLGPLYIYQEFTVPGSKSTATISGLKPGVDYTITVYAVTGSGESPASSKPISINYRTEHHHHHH', 'nM', 85.1),
  ('PCSK9-PKE2 tandem 4472_D06 (designed binder, not shown: The inter-domain linker; In the real molecule the two parts below are one polypeptide joined by this linker) PCSK9 domain: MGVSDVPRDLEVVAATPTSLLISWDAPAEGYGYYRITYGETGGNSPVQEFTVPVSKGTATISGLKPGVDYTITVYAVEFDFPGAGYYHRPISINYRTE PKE2 domain: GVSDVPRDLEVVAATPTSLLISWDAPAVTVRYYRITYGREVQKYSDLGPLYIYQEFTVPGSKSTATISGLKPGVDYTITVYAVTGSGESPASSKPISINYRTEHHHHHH', 'nM', 139);

Consider the binder PCSK9-PKE2 tandem 4472_A04 (designed binder, not shown: The inter-domain linker; In the real molecule the two parts below are one polypeptide joined by this linker) PCSK9 domain: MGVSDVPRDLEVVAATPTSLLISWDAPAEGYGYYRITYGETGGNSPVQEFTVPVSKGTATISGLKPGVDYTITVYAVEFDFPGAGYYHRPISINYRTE PKE2 domain: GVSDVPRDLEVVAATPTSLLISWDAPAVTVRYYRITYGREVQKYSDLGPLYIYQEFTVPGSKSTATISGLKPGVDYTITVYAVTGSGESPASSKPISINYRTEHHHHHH and give its measured EC50.
144

Consider the binder PCSK9-PKE2 tandem 4472_B09 (designed binder, not shown: small tags and cut ends, The two parts are one polypeptide in the real molecule, joined by the undisclosed linker K; they are given here as separate chains.) PCSK9 10Fn3: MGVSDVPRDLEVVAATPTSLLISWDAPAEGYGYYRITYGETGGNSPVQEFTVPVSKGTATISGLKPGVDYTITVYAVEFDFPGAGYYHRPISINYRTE PKE2 10Fn3: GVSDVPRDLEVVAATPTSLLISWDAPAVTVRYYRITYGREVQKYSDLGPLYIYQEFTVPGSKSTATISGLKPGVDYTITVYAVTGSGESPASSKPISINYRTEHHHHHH and give its measured EC50.
69.2

Consider the binder PCSK9-PKE2 tandem 4472_F06 (designed binder, The real molecule is ONE polypeptide: PCSK9 domain, undisclosed linker 'G' (a code letter, not the residue), PKE2 domain. It is given here as two chains because the linker letters are unknown., not shown: The inter-domain linker) PCSK9 domain: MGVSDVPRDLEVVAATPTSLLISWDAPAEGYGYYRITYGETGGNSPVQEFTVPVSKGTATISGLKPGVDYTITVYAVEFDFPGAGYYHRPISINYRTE PKE2 domain: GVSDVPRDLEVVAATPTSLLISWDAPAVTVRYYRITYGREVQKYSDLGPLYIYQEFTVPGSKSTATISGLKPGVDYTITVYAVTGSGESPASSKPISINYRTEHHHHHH and give its measured EC50.
58.9

Consider the binder PCSK9-PKE2 tandem 4472_E05 (designed binder, not shown: small tags and cut ends, The two parts are one polypeptide in the real molecule, joined by the undisclosed linker R; they are given here as separate chains.) PCSK9 10Fn3: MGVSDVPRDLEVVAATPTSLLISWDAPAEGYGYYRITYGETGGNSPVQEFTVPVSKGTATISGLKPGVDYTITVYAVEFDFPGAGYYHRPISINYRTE PKE2 10Fn3: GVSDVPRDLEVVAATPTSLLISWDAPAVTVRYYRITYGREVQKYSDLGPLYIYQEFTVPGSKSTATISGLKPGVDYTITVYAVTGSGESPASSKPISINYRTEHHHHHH and give its measured EC50.
102

Consider the binder PCSK9-PKE2 tandem 4472_B11 (designed binder, not shown: small tags and cut ends, The two parts are one polypeptide in the real molecule, joined by the undisclosed linker L; they are given here as separate chains.) PCSK9 10Fn3: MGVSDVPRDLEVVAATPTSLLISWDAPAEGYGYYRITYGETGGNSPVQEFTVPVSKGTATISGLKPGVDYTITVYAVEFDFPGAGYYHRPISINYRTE PKE2 10Fn3: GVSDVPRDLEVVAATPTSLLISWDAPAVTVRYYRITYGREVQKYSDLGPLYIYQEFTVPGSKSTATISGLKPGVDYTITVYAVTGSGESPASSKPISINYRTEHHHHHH and give its measured EC50.
70.1

Data provenance: patent US20200048328A1
